Form field: half-life (one value per entry).
method_description: In vitro metabolic stability, rat liver microsome incubation
Type: in vitro ADME
condition_label: liver microsomes, 1 mg/mL protein, 37° C., read-out: T1/2 in rat liver microsome
assay_endpoint: half-life (h)

compound_structure_string | measured_value
Cn1c(C(=O)N2CC(C(F)(F)F)C2)cc2c1CN(c1nccc(Nc3ccc(-c4cn[nH]c4)cc3)n1)CC2 | 1.14
Cn1c(C(=O)N2CC(F)(F)C2)cc2c1CN(c1nc(C#N)cc(Nc3ccc(-c4cn[nH]c4)cc3)n1)CC2 | 5.75
Cc1nc(Nc2ccc(-c3cn[nH]c3)cc2)nc(N2CCc3cc(C(=O)N4CC(F)(F)C4)n(C)c3C2)n1 | 3.49
COc1nnc(N2CCc3cc(C(=O)N4CC(F)(F)C4)n(C)c3C2)nc1Nc1ccc(-c2cn[nH]c2)cc1 | 1.34
COc1cnc(N2CCc3cc(C(=O)N4CC(F)(F)C4)n(C)c3C2)nc1Nc1ccc(-c2cn[nH]c2)cc1 | 1.02
Cn1c(C(=O)N2CC(F)(F)C2)cc2c1CN(c1nccc(Nc3ccc(-c4cn[nH]c4)cc3)n1)CC2 | 1.72
Cc1nc(Nc2ccc(-c3cn[nH]c3)cc2)nc(N2CCc3cc(C(=O)N4CC(C#N)C4)n(C)c3C2)n1 | 1.03

----------
method_description: In vitro cytotoxicity assay in HepG2 cells using the CCK-8 method
Assay type: cell-based
condition_label: human

compound_structure_string | CC50 at 48 h
Cn1c(C(=O)OCC(F)(F)F)cc2c1CN(c1nccc(Nc3ccc(-c4cn[nH]c4)cc3)n1)CC2 | 28.4 µM
Cn1c(C(=O)N2CC(F)(F)C2)cc2c1CN(c1nc(Nc3ccc(-c4cn[nH]c4)cc3)c3cccn3n1)CC2 | > 100 µM
Cn1c(C(=O)N2CC(F)(F)C2)cc2c1CN(c1nncc(Nc3ccc(-c4cn[nH]c4)cc3)n1)CC2 | > 100 µM
COc1nnc(N2CCc3cc(C(=O)N4CC(F)(F)C4)n(C)c3C2)nc1Nc1ccc(-c2cn[nH]c2)cc1 | > 100 µM
Cc1nc(Nc2ccc(-c3cn[nH]c3)cc2)nc(N2CCc3cc(C(=O)N4CC(C#N)C4)n(C)c3C2)n1 | > 100 µM
Cn1c(C(=O)N2CC(F)(F)C2)cc2c1CN(c1nc(CC#N)nc(Nc3ccc(-c4cn[nH]c4)cc3)n1)CC2 | > 100 µM
COc1cnc(N2CCc3cc(C(=O)N4CC(F)(F)C4)n(C)c3C2)nc1Nc1ccc(-c2cn[nH]c2)cc1 | > 100 µM

----------
method_description: In vitro metabolic stability, human liver microsome incubation
Assay type: in vitro ADME
condition_label: liver microsomes, 1 mg/mL protein, 37° C., read-out: T1/2 in human liver microsome
assay_endpoint: half-life

compound_structure_string | measured_value
Cc1nc(Nc2ccc(-c3cn[nH]c3)cc2)nc(N2CCc3cc(C(=O)N4CC(F)(F)C4)n(C)c3C2)n1 | 7.32 h
Cn1c(C(=O)NCC(F)(F)F)cc2c1CN(c1nccc(Nc3ccc(-c4cn[nH]c4)cc3)n1)CC2 | 3.11 h
Cn1c(C(=O)N2CC(F)(F)C2)cc2c1CN(c1ncnc(Nc3ccc(-c4cn[nH]c4)cc3)n1)CC2 | 2.97 h
Cn1c(C(=O)N2CC(F)(F)C2)cc2c1CN(c1nncc(Nc3ccc(-c4cn[nH]c4)cc3)n1)CC2 | 2.61 h

----------
method_description: In vivo pharmacokinetic study in mice
condition_label: mouse, plasma, 1 mg/kg, Po (fasted)
Form field: Cmax (one value per entry).
assay_endpoint: Cmax (ng/mL)

compound_structure_string | measured_value
Cn1c(C(=O)N2CC(F)(F)C2)cc2c1CN(c1nccc(Nc3ccc(-c4cn[nH]c4)cc3)n1)CC2 | 37.2
Cn1c(C(=O)N2CC(C(F)F)C2)cc2c1CN(c1nccc(Nc3ccc(-c4cn[nH]c4)cc3)n1)CC2 | 64.5
Cn1c(C(=O)NCC(F)(F)F)cc2c1CN(c1nccc(Nc3ccc(-c4cn[nH]c4)cc3)n1)CC2 | 41.3
Cn1c(C(=O)N2CC(F)(F)C2)cc2c1CN(c1ncc(F)c(Nc3ccc(-c4cn[nH]c4)cc3)n1)CC2 | 116
Cn1c(C(=O)N2CC(F)(F)C2)cc2c1CN(c1nc(F)cc(Nc3ccc(-c4cn[nH]c4)cc3)n1)CC2 | 60
Cn1c(C(=O)N2CC(F)(F)C2)cc2c1CN(c1ncnc(Nc3ccc(-c4cn[nH]c4)cc3)n1)CC2 | 98.7
Cc1nc(Nc2ccc(-c3cn[nH]c3)cc2)nc(N2CCc3cc(C(=O)N4CC(F)(F)C4)n(C)c3C2)n1 | 109

----------
Form field: AUC(0-t) (one value per entry).
method_description: In vivo pharmacokinetic study in mice
condition_label: mouse, plasma, 1 mg/kg, Po (fasted)

compound_structure_string | AUC(0-t), ng·h/mL
Cn1c(C(=O)NCC(F)(F)F)cc2c1CN(c1nccc(Nc3ccc(-c4cn[nH]c4)cc3)n1)CC2 | 106
Cc1nc(Nc2ccc(-c3cn[nH]c3)cc2)nc(N2CCc3cc(C(=O)N4CC(F)(F)C4)n(C)c3C2)n1 | 431
Cn1c(C(=O)N2CC(C(F)F)C2)cc2c1CN(c1nccc(Nc3ccc(-c4cn[nH]c4)cc3)n1)CC2 | 144
Cn1c(C(=O)N2CC(F)(F)C2)cc2c1CN(c1nccc(Nc3ccc(-c4cn[nH]c4)cc3)n1)CC2 | 71.8
Cn1c(C(=O)N2CC(F)(F)C2)cc2c1CN(c1nc(F)cc(Nc3ccc(-c4cn[nH]c4)cc3)n1)CC2 | 225
Cn1c(C(=O)N2CC(F)(F)C2)cc2c1CN(c1ncc(F)c(Nc3ccc(-c4cn[nH]c4)cc3)n1)CC2 | 341
Cn1c(C(=O)N2CC(F)(F)C2)cc2c1CN(c1ncnc(Nc3ccc(-c4cn[nH]c4)cc3)n1)CC2 | 209

----------
method_description: In vivo pharmacokinetic study in mice
condition_label: mouse, plasma, 1 mg/kg Po (fasted) vs 1 mg/kg Iv
Record t whenever bioavailability is at 50% or higher; record f when lower.

compound_structure_string | class
Cn1c(C(=O)N2CC(F)(F)C2)cc2c1CN(c1nccc(Nc3ccc(-c4cn[nH]c4)cc3)n1)CC2 | t
Cc1nc(Nc2ccc(-c3cn[nH]c3)cc2)nc(N2CCc3cc(C(=O)N4CC(F)(F)C4)n(C)c3C2)n1 | t
Cn1c(C(=O)NCC(F)(F)F)cc2c1CN(c1nccc(Nc3ccc(-c4cn[nH]c4)cc3)n1)CC2 | f
Cn1c(C(=O)N2CC(F)(F)C2)cc2c1CN(c1nc(F)cc(Nc3ccc(-c4cn[nH]c4)cc3)n1)CC2 | f
Cn1c(C(=O)N2CC(F)(F)C2)cc2c1CN(c1ncnc(Nc3ccc(-c4cn[nH]c4)cc3)n1)CC2 | t
Cn1c(C(=O)N2CC(C(F)F)C2)cc2c1CN(c1nccc(Nc3ccc(-c4cn[nH]c4)cc3)n1)CC2 | t
Cn1c(C(=O)N2CC(F)(F)C2)cc2c1CN(c1ncc(F)c(Nc3ccc(-c4cn[nH]c4)cc3)n1)CC2 | t

----------
Form field: IC50 (one value per entry).
target_or_test_system: ROCK2 kinase (Homo sapiens, UniProt O75116)
Sequence (O75116 whole entry): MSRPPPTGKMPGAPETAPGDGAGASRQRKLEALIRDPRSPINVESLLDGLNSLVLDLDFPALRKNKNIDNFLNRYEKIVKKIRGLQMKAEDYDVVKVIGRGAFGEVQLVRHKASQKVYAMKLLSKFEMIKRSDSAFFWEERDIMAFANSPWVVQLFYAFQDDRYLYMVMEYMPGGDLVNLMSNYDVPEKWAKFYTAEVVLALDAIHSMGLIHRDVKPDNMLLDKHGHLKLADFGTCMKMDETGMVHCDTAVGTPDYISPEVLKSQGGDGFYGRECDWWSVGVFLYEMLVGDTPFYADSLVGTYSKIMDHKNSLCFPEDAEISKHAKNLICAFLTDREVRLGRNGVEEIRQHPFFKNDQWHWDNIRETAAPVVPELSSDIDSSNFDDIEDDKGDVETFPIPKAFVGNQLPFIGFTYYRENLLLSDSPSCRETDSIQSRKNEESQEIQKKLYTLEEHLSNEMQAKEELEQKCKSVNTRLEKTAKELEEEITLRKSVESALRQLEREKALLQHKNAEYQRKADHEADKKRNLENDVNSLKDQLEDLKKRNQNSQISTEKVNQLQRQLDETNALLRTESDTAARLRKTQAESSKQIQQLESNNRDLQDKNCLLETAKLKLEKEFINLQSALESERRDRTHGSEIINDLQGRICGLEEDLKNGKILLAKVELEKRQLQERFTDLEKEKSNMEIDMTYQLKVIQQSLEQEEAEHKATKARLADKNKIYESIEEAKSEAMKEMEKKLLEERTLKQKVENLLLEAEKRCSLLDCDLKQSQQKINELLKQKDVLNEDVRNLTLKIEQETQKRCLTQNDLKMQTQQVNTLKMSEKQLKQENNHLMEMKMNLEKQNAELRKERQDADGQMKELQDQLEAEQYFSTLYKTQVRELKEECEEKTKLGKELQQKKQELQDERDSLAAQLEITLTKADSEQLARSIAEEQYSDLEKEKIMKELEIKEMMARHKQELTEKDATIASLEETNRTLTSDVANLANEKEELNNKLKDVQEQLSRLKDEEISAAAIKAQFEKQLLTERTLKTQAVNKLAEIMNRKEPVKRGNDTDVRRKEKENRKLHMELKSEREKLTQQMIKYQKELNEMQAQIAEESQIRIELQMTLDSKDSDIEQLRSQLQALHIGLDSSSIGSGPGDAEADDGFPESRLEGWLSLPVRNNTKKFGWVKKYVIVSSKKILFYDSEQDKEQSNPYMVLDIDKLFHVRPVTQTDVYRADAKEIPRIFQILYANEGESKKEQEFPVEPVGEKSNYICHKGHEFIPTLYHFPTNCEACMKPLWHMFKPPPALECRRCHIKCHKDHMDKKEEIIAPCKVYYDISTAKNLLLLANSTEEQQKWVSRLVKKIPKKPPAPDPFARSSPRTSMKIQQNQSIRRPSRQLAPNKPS
assay_endpoint: IC50

compound_structure_string | assay_endpoint | measured_value
Cn1c(C(=O)N2CC(F)(F)C2)cc2c1CN(c1nccc(Nc3ccc(-c4cn[nH]c4)cc3)n1)CC2(C)C | IC50 | 50 to 500 nM
Cn1c(C(=O)NCC(F)(F)F)cc2c1CN(c1nccc(Nc3ccc(-c4cn[nH]c4)cc3)n1)CC2 | IC50 | ≤ 50 nM
Cn1c(C(=O)N2CC(F)(F)C2)cc2c1CN(c1ncc(Cl)c(Nc3ccc(-c4c[nH]nc4F)cc3)n1)CC2 | IC50 | 50 to 500 nM
Cn1c(C(=O)N2CC(F)(F)C2)cc2c1CN(c1nncc(Nc3ccc(-c4cn[nH]c4)cc3)n1)CC2 | IC50 | ≤ 50 nM
CC(C)c1nc(Nc2ccc(-c3cn[nH]c3)cc2)nc(N2CCc3cc(C(=O)N4CC(F)(F)C4)n(C)c3C2)n1 | IC50 | 50 to 500 nM
O=C(O)c1cn2c(n1)CN(c1nccc(Nc3ccc(-c4cn[nH]c4)cc3)n1)CC2 | IC50 | > 4500 nM
Cn1c(C(=O)N2CC(F)(F)C2)cc2c1C(C)(C)N(c1nccc(Nc3ccc(-c4cn[nH]c4)cc3)n1)CC2 | IC50 | 50 to 500 nM

----------
method_description: In vitro metabolic stability, human liver microsome incubation
Type: in vitro ADME
condition_label: liver microsomes, 1 mg/mL protein, 37° C., read-out: T1/2 in human liver microsome
Form field: half-life (one value per entry).
assay_endpoint: half-life (h)

compound | measured_value
Cc1nc(Nc2ccc(-c3cn[nH]c3)cc2)nc(N2CCc3cc(C(=O)N4CC(C#N)C4)n(C)c3C2)n1 | 4.32
Cn1c(C(=O)OCC(F)(F)F)cc2c1CN(c1nccc(Nc3ccc(-c4cn[nH]c4)cc3)n1)CC2 | 1.35
COc1nnc(N2CCc3cc(C(=O)N4CC(F)(F)C4)n(C)c3C2)nc1Nc1ccc(-c2cn[nH]c2)cc1 | 1.87
Cn1c(C(=O)N2CC(F)(F)C2)cc2c1CN(c1ncc(F)c(Nc3ccc(-c4cn[nH]c4)cc3)n1)CC2 | 0.956
Cn1c(C(=O)N2CC(C#N)C2)cc2c1CN(c1ncc(F)c(Nc3ccc(-c4cn[nH]c4)cc3)n1)CC2 | 1.01
Cn1c(C(=O)N2CC(C(F)(F)F)C2)cc2c1CN(c1nccc(Nc3ccc(-c4cn[nH]c4)cc3)n1)CC2 | 1.55
Cn1c(C(=O)N2CC(F)(F)C2)cc2c1CN(c1nc(C#N)cc(Nc3ccc(-c4cn[nH]c4)cc3)n1)CC2 | 7.3
Cn1c(C(=O)N2CC(C(F)F)C2)cc2c1CN(c1nccc(Nc3ccc(-c4cn[nH]c4)cc3)n1)CC2 | 1.59
Cn1c(C(=O)N2CC(F)(F)C2)cc2c1CN(c1nccc(Nc3ccc(-c4cn[nH]c4)cc3)n1)CC2 | 2.92
Cn1c(C(=O)N2CC(F)(F)C2)cc2c1CN(c1nc(F)cc(Nc3ccc(-c4cn[nH]c4)cc3)n1)CC2 | 3.46
CC(C)NC(=O)COc1cccc(-c2nc(Nc3ccc4[nH]ncc4c3)c3ccccc3n2)c1 [KD-025, reference compound] | 1.52
COc1cnc(N2CCc3cc(C(=O)N4CC(F)(F)C4)n(C)c3C2)nc1Nc1ccc(-c2cn[nH]c2)cc1 | 3.95
Cn1c(C(=O)N2CC(F)(F)C2)cc2c1CN(c1nc(CC#N)nc(Nc3ccc(-c4cn[nH]c4)cc3)n1)CC2 | 4.82
Cn1c(C(=O)N2CC(F)(F)C2)cc2c1CN(c1nc(Nc3ccc(-c4cn[nH]c4)cc3)c3cccn3n1)CC2 | 3.17
